# System: HepG2
# ASSAY_NAME: Cytotoxicity against human HepG2 cells assessed as effect on membrane permeability after 48 hrs by TOTO-3 iodide-staining based cell health assay
# Assay type: ADME
# CONDITION_INFO: HepG2, 48 h
Please respond with reported log10 of IC50 for every item in the list.
On a log10 scale: recorded IC50, unit µM.

IN: Fill in reported log10 of IC50 for this entry: `CN1CCCC2(CCN(Cc3ccc(Oc4ccc(OC(F)(F)F)cc4)cc3)CC2)C1`
OUT: 0.90

IN: Provide one value: measured log10 of IC50 of `FC(F)(F)Oc1ccc(Oc2ccc(CN3CCC4(CCCO4)CC3)cc2)cc1`
OUT: 2.12

IN: Quote log10 of IC50 reported for `O=C1OCCC12CCN(Cc1ccc(Oc3ccc(OC(F)(F)F)cc3)cc1)CC2` please.
OUT: 1.88

IN: For the compound `FC(F)(F)Oc1ccc(Oc2ccc(CN3CCC4(CC3)OCCO4)cc2)cc1` , give its measured log10 of IC50 value.
OUT: 1.70

IN: Tell me measured log10 of IC50 for `FC(F)(F)Oc1ccc(Oc2ccc(CN3CCC4(CCNC4)CC3)cc2)cc1` please.
OUT: 0.76

Could I get log10 of IC50 for every one of these entries?
1. FC(F)(F)Oc1ccc(Oc2ccc(CN3CCC4(CCCCO4)CC3)cc2)cc1
2. FC(F)(F)Oc1ccc(Oc2ccc(CN3CCC4(CCCCC4)CC3)cc2)cc1
3. FC(F)(F)Oc1ccc(Oc2ccc(CN3CCC4(CC3)OCCCO4)cc2)cc1
4. FC(F)(F)Oc1ccc(Oc2ccc(CN3CCCCC3)cc2)cc1
5. CN1C(=O)C=CCC12CCN(Cc1ccc(Oc3ccc(OC(F)(F)F)cc3)cc1)CC2

OUT:
[1.64, 1.45, 1.41, 1.67, 1.47]

====

# ASSAY_NAME: Cmax in C57BL/6 mouse at 45 mg/kg, po via gavage by LC-MS/MS analysis
# Assay type: ADME, organism-based
# Design: dose 45 mg/kg, route oral
# CONDITION_INFO: in vivo
READOUT_NAME: Cmax
Remember to quote the unit after the number.

IN: State its Cmax for this molecule: `Brc1ccc(Nc2ccc(CN3CCC4(CC3)OCCc3sccc34)cc2)cc1`
OUT: 1020 ng/mL

====

# ASSAY_NAME: Volume of distribution at steady state in C57BL/6 mouse at 4 mg/kg, iv by LC-MS/MS analysis
# Assay type: ADME, organism-based
# CONDITION_INFO: in vivo, read-out: Vdss
READOUT_NAME: Vd (L/kg)
Answers are plain numbers, in L/kg.

IN: Fill in reported Vd for this entry: `c1cc2c(s1)CCOC21CCN(Cc2ccc3c(c2)OCCO3)CC1`
OUT: 7.4

====

# ASSAY_NAME: Intrinsic clearance in mouse liver microsomes at 0.5 uM preincubated with NADPH and measured up to 30 mins by LC-MS/MS analysis
# Type: ADME, microsome
READOUT_NAME: CLH (mL/min/g)
Numbers only, in mL/min/g.

Some solved cases for reference:
IN: Report CLH, nothing else, for this compound: `FS(F)(F)(F)(F)c1ccc(CN2CCC3(CC2)OCCc2sccc23)cc1`
OUT: 18.2

IN: Give CLH for `Brc1ccc(Nc2ccc(CN3CCC4(CC3)OCCc3sccc34)cc2)cc1`
OUT: 0.9

IN: Tell us which CLH value is on record for `CC(C)(C)c1ccc(CN2CCC3(CC2)OCCCCO3)cc1`
OUT: 27

Each of the following entries comes with a recorded value; kindly state CLH for each.
1. Clc1ccc2c(CN3CCC4(CC3)OCCc3sccc34)c[nH]c2c1
2. FC(F)(F)Oc1ccc(Oc2ccc(CN3CCC4(CCCCC4)CC3)cc2)cc1
3. FC(F)(F)Oc1ccc(Oc2ccc(N3CCC4(CC3)OCCc3sccc34)cc2)cc1
4. Cc1ccc(CN2CCC3(CC2)OCCc2sccc23)[nH]1
5. CC(C)(C)c1ccc(CN2CCC3(CCCOC3)CC2)cc1
6. FC(F)(F)Oc1ccc(Oc2ccc(CN3CCC4(CCCCO4)CC3)cc2)cc1

OUT:
1: 10.3; 2: 2.8; 3: 1.2; 4: 28.7; 5: 48; 6: 1.2

Below is a list of compounds. For each, state its recorded CLH.
1. CC(C)(C)c1ccc(CN2CCC3(CC2)OCCCO3)cc1
2. CC(c1ccc(C(F)(F)F)cc1)N1CCC2(CC1)OCCc1sccc12 (stereo not given)
3. CC(C)(C)c1ccc(CN2CCC3(CCOCC3)CC2)cc1
4. c1ccc(Oc2ccc(CN3CCC4(CC3)OCCc3sccc34)cc2)cc1
5. FC(F)(F)Oc1ccc(Oc2ccc(CN3CCC4(CCCO4)CC3)cc2)cc1

OUT:
13.5
18.1
2.25
28.8
0.6

Report CLH for every entry below.
1. c1ccc2c(CN3CCC4(CC3)OCCc3sccc34)c[nH]c2c1
2. CC(C)(C)c1ccc(CN2CCC3(CCCCO3)CC2)cc1

OUT:
[7, 18.1]

====

# ASSAY_NAME: Half life in C57BL/6 mouse at 3.6 mg/kg, iv by LC-MS/MS analysis
# Type: ADME, organism-based
# CONDITION_INFO: in vivo
READOUT_NAME: half-life (h)
Numbers only, in h.

IN: Input `c1ccc(Oc2ccc(CN3CCC4(CC3)OCCc3sccc34)cc2)cc1` , output reported half-life.
OUT: 3.9

====

# ASSAY_NAME: Half life in C57BL/6 mouse at 4.5 mg/kg, iv by LC-MS/MS analysis
# Type: ADME, organism-based
# CONDITION_INFO: in vivo
READOUT_NAME: half-life
Provide the measurement as a number trailed by its unit.

IN: Name the recorded half-life of the item `Brc1ccc(Nc2ccc(CN3CCC4(CC3)OCCc3sccc34)cc2)cc1` in your answer.
OUT: 7.3 h

====

# ASSAY_NAME: Clearance in C57BL/6 mouse at […], iv by LC-MS/MS analysis
# Format: ADME, organism-based
# CONDITION_INFO: in vivo
READOUT_NAME: clearance (mL/min/kg)
Numbers only, in mL/min/kg.

IN: Look up and report measured clearance for this entry: `FC(F)(F)Oc1ccc(Oc2ccc(N3CCC4(CC3)OCCc3sccc34)cc2)cc1`
OUT: 36.3

====

# ASSAY_NAME: Clearance in C57BL/6 mouse at 4.5 mg/kg, iv by LC-MS/MS analysis
# Assay type: ADME, organism-based
# CONDITION_INFO: in vivo
READOUT_NAME: clearance (mL/min/kg)
Give bare numbers, in mL/min/kg.

IN: Look up clearance of `Brc1ccc(Nc2ccc(CN3CCC4(CC3)OCCc3sccc34)cc2)cc1` and report it.
OUT: 19.8

====

Task for the reader: assign each of the following compounds its reported pIC50.
# Test system: HepG2
# ASSAY_NAME: Cytotoxicity against human HepG2 cells assessed as effect on mitochondrial membrane potential after 48 hrs by TMRM-staining based cell health assay
# Type: ADME
# CONDITION_INFO: HepG2, 48 h
One number for each entry, as −log10 of the molar value.

Okay, here is my list. What is pIC50 for each of these?
1. CN1CCCC2(CCN(Cc3ccc(Oc4ccc(OC(F)(F)F)cc4)cc3)CC2)C1
2. CC(C)(C)c1ccc(CN2CCC3(CCCCO3)CC2)cc1
3. FC(F)(F)Oc1ccc(Oc2ccc(CN3CCC4(CCCCC4)CC3)cc2)cc1
4. FC(F)(F)Oc1ccc(Oc2ccc(CN3CCC4(CC3)OCCO4)cc2)cc1

OUT:
4.91
3.87
4.66
4.27

====

# ASSAY_NAME: AUC in C57BL/6 mouse at 18.7 mg/kg, po via gavage by LC-MS/MS analysis
# Type: ADME, organism-based
# CONDITION_INFO: in vivo
READOUT_NAME: AUC
Form field: result (number plus unit)

IN: Consider the molecule `c1ccc(Oc2ccc(CN3CCC4(CC3)OCCc3sccc34)cc2)cc1` and give its recorded AUC.
OUT: 100 ng·h/mL

====

# ASSAY_NAME: Cmax in C57BL/6 mouse at 18.7 mg/kg, po via gavage by LC-MS/MS analysis
# Type: ADME, organism-based
# Set-up: dose 18.7 mg/kg, route oral
# CONDITION_INFO: in vivo
READOUT_NAME: Cmax

IN: Input `c1ccc(Oc2ccc(CN3CCC4(CC3)OCCc3sccc34)cc2)cc1` , output reported Cmax.
OUT: 50 ng/mL

====

# ASSAY_NAME: Volume of distribution at steady state in C57BL/6 mouse at […], iv by LC-MS/MS analysis
# Type: ADME, organism-based
# CONDITION_INFO: in vivo, read-out: Vdss
READOUT_NAME: Vd (L/kg)
Give bare numbers, in L/kg.

IN: Entry `FC(F)(F)Oc1ccc(Oc2ccc(N3CCC4(CC3)OCCc3sccc34)cc2)cc1` needs its Vd filled in; supply it.
OUT: 10.4

Attribution: ChEMBL document CHEMBL4257587
